Reference source: PubChem BioAssay AID652019

- Tested on: E. coli EV36, T7 phage lysis inhibition, OD600
- EXPERIMENT_DESCRIPTION: blocking T7-induced lysis of EV36 cultures – OD600, set 6, selectivity assay for bacterial capsule biogenesis inhibitor project, dose response (AID 652019)
The source made the active and inactive calls.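 Rule for the calls: active = compound whose activity held up on retesting over a range of doses, giving a fitted IC50; inactive = the rest.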
Outcomes you can answer with include only these: active, inactive

The examples below pair each entry with its known result.
given_smiles=O=C(Nc1ccncc1Br)c1ccc2ncsc2c1 assigned_category=inactive
given_smiles=O=C(Nc1ccncc1F)c1ccc2nc(N3CCCC3)sc2c1 assigned_category=inactive
given_smiles=Cc1cnccc1NC(=O)c1ccc2ncsc2c1 assigned_category=active
given_smiles=Cc1nc2ccc(C(=O)Nc3ccncc3)cc2s1 assigned_category=active
given_smiles=O=C(Nc1ccncc1)c1ccc2nc(N3CCCC3)sc2c1 assigned_category=inactive

Check the results log: what was the call for `Cc1nc2ccc(C(=O)Nc3ccncc3F)cc2s1` ?
inactive

Now the same for `Cc1cc(NC(=O)c2ccc3nc(NC(=O)OC(C)(C)C)sc3c2)ccn1`
active

Now the same for `CC(C)(C)OC(=O)Nc1nc2ccc(C(=O)Nc3ccncc3Br)cc2s1`
inactive

Now the same for `COc1cc(NC(=O)c2ccc3nc(NC(=O)OC(C)(C)C)sc3c2)ccn1`
inactive

Now the same for `CC(C)(C)OC(=O)Nc1nc2ccc(C(=O)Nc3ccnc(Br)c3)cc2s1`
active

Now the same for `O=C(Nc1ccnc(Br)c1)c1ccc2nc(N3CCCC3)sc2c1`
inactive

----------
- Tested on: E. coli EV36, T7 phage lysis inhibition, OD600
- EXPERIMENT_DESCRIPTION: blocking T7-induced lysis of EV36 cultures – OD600, set 6, selectivity assay for bacterial capsule biogenesis inhibitor project, dose response (AID 652019)
Active and inactive are the calls of the source.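 The calls were made as follows: active = compound whose activity held up on retesting over a range of doses, giving a fitted IC50; inactive = the rest.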
Outcomes you can answer with include only these: active, inactive

The examples below pair each entry with its known result.
given_smiles=COc1cc(NC(=O)c2ccc3nc(C)sc3c2)ccn1 assigned_category=active
given_smiles=CC(C)(C)OC(=O)Nc1ccc(NC(=O)c2ccc3nc(NC(=O)OC(C)(C)C)sc3c2)cn1 assigned_category=inactive
given_smiles=Nc1nc2ccc(C(=O)Nc3ccncc3)cc2s1 assigned_category=inactive
given_smiles=O=C(Nc1ccnc(Cl)c1)c1ccc2nc(N3CCCC3)sc2c1 assigned_category=inactive
given_smiles=COc1cc(NC(=O)c2ccc3nc(N4CCCC4)sc3c2)ccn1 assigned_category=inactive

Continue with the compound presented below.
Check the results log: what was the call for `CC(C)(C)OC(=O)Nc1cnccc1NC(=O)c1ccc2nc(N)sc2c1` ?
inactive

----------
- System: E. coli EV36, T7 phage lysis inhibition, OD600
- EXPERIMENT_DESCRIPTION: blocking T7-induced lysis of EV36 cultures – OD600, set 6, selectivity assay for bacterial capsule biogenesis inhibitor project, dose response (AID 652019)
Calls of active or inactive are those of the source.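 The calls were made as follows: active = compound whose activity held up on retesting over a range of doses, giving a fitted IC50; inactive = the rest.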
Outcomes you can answer with include only these: true for active, false for inactive

Check the results log: what was the call for `Cc1cnccc1NC(=O)c1ccc2nc(N)sc2c1` ?
false

Now the same for `Nc1nc2ccc(C(=O)Nc3ccncc3F)cc2s1`
false

----------
- Test system: E. coli EV36, T7 phage lysis inhibition, OD600
- EXPERIMENT_DESCRIPTION: blocking T7-induced lysis of EV36 cultures – OD600, set 6, selectivity assay for bacterial capsule biogenesis inhibitor project, dose response (AID 652019)
Active and inactive are the calls of the source.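 How the source made its calls: active means compound whose activity held up on retesting over a range of doses, giving a fitted IC50; inactive means the rest.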
Outcomes you can answer with include only these: active, inactive

given_smiles=Cc1cc(NC(=O)c2ccc3nc(N4CCCC4)sc3c2)ccn1 assigned_category=inactive
given_smiles=Cc1nc2ccc(C(=O)Nc3ccncc3C)cc2s1 assigned_category=inactive
given_smiles=Cc1cnccc1NC(=O)c1ccc2nc(NC(=O)OC(C)(C)C)sc2c1 assigned_category=inactive
given_smiles=CC(C)(C)OC(=O)Nc1cnccc1NC(=O)c1ccc2ncsc2c1 assigned_category=inactive
given_smiles=CC(C)(C)OC(=O)Nc1ccc(NC(=O)c2ccc3nc(N4CCCC4)sc3c2)cn1 assigned_category=inactive
given_smiles=CC(C)(C)OC(=O)Nc1nc2ccc(C(=O)Nc3ccnc(Cl)c3)cc2s1 assigned_category=active
given_smiles=O=C(Nc1ccncc1Br)c1ccc2nc(N3CCCC3)sc2c1 assigned_category=inactive
given_smiles=O=C(O)c1ccc2ncsc2c1 assigned_category=inactive

Check the results log: what was the call for `O=C(Nc1ccncc1F)c1ccc2ncsc2c1` ?
active

Now the same for `Cc1nc2ccc(C(=O)Nc3cnccc3NC(=O)OC(C)(C)C)cc2s1`
inactive

Now the same for `COc1cc(NC(=O)c2ccc3nc(N)sc3c2)ccn1`
active
